Give measured Test F disease control rating for each item. Keep answers brief.
- Tested on: Blumeria graminis f. sp. tritici
- Assay Details: Test F: wheat powdery mildew, test suspension sprayed on wheat seedlings the day before inoculation
- Format: in vivo
- Reported Conditions: sprayed to run-off, inoculated with spore dust following day, visual rating after 8 days at 20° C., 100 = 100% disease control, triplicate averaged
In your response, the unit should come after the numeric value.

stdin: Please indicate Test F disease control rating recorded for Cc1nn(C)c(C(F)c2ccc(F)cc2F)c1-c1c(F)cccc1F (stereo not shown) [Compound 4]
stdout: 0%

stdin: Provide only the value of recorded Test F disease control rating for Cc1nn(C)c(C(F)c2ccc(F)cc2Cl)c1-c1c(F)cccc1Cl (stereo not shown) [Compound 6]
stdout: 87%

stdin: Please look at this compound and report its Test F disease control rating: COc1cc(F)c(C(F)c2c(-c3c(F)cccc3F)c(C)nn2C)c(F)c1 (stereo not shown) [Compound 3]
stdout: 99%

stdin: Entry Cc1nn(C)c(C(Cl)c2ccc(F)cc2F)c1-c1ccc(F)cc1Cl (stereo not shown) [Compound 2] needs its Test F disease control rating filled in; supply it.
stdout: 0%

stdin: Return Test F disease control rating for the following compound: Cc1nn(C)c(C(Cl)c2ccc(F)cc2F)c1-c1c(F)cccc1F (stereo not shown) [Compound 5]
stdout: 100%

stdin: Please give the documented Test F disease control rating of Cc1nn(C)c(C(F)c2ccc(F)cc2F)c1-c1ccc(F)cc1Cl (stereo not shown) [Compound 1]
stdout: 69%

stdin: Provide only the value of recorded Test F disease control rating for Cc1nn(C)c(C(Cl)c2ccc(F)cc2Cl)c1-c1c(F)cccc1Cl (stereo not shown) [Compound 7]
stdout: 100%
